Reported fold difference in affinity vs original values for the following binders.
- system: T1, Ep-CAM (UniProt P16422 24-265, limits assumed)
- T1 sequence (looked up): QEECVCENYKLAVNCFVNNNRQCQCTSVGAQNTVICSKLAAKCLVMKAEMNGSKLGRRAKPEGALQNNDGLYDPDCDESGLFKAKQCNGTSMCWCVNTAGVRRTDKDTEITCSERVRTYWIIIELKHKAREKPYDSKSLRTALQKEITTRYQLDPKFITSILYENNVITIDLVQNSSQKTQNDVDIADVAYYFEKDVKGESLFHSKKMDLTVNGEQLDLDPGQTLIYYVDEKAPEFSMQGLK
- assayProtocol: Biacore, Fab periplasmic extract on immobilised Epcam
Express your answer in fold, writing the number without its unit.

Recorded fold difference in affinity vs original, per entry:
[
  {
    "binder": "ING-1 Fab, heavy chain Y32A (Fab, V domains shown, Fab in periplasmic extract) VH: QIQLVQSGPELKKPGETVKISCKASGYTFTKAGMNWVKQAPGKGLKWMGWINTYTEEPTYGDDFKGRFAFSLETSASTANLQINNLKSEDTATYFCARFGSAVDYWGQGTSVTVSS VL: DIVMTQAAFSNPVTLGTSGSISCRSSKSLLHSNGITYLYWYLQKPGQSPQLLIYQMSNLASGVPDRFSSSGSGTDFTLRISRVEAEDVGVYYCAQNLELPRTFGGGTKLEMKR",
    "experimentalEndpoint": "fold difference in affinity vs original",
    "unitOfMeasure": "fold",
    "measuredResult": 0.01
  },
  {
    "binder": "ING-1 Fab, heavy chain P58T (Fab, V domains shown, Fab in periplasmic extract) VH: QIQLVQSGPELKKPGETVKISCKASGYTFTKYGMNWVKQAPGKGLKWMGWINTYTEETTYGDDFKGRFAFSLETSASTANLQINNLKSEDTATYFCARFGSAVDYWGQGTSVTVSS VL: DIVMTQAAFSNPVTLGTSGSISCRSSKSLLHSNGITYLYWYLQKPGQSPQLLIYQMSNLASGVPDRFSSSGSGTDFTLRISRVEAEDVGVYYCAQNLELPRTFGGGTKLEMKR",
    "experimentalEndpoint": "fold difference in affinity vs original",
    "unitOfMeasure": "fold",
    "measuredResult": 1
  },
  {
    "binder": "ING-1 Fab, heavy chain G33A (Fab, V domains shown, Fab in periplasmic extract) VH: QIQLVQSGPELKKPGETVKISCKASGYTFTKYAMNWVKQAPGKGLKWMGWINTYTEEPTYGDDFKGRFAFSLETSASTANLQINNLKSEDTATYFCARFGSAVDYWGQGTSVTVSS VL: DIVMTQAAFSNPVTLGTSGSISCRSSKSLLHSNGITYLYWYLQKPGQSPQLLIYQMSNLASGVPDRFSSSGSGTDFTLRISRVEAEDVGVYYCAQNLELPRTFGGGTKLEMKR",
    "experimentalEndpoint": "fold difference in affinity vs original",
    "unitOfMeasure": "fold",
    "measuredResult": 0.06
  },
  {
    "binder": "ING-1 Fab, heavy chain W50A (Fab, V domains shown, Fab in periplasmic extract) VH: QIQLVQSGPELKKPGETVKISCKASGYTFTKYGMNWVKQAPGKGLKWMGAINTYTEEPTYGDDFKGRFAFSLETSASTANLQINNLKSEDTATYFCARFGSAVDYWGQGTSVTVSS VL: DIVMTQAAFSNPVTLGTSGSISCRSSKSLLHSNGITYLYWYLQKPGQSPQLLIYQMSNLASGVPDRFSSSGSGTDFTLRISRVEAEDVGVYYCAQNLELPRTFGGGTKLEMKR",
    "experimentalEndpoint": "fold difference in affinity vs original",
    "unitOfMeasure": "fold",
    "measuredResult": 0.03
  }
]

Next binder, fold difference in affinity vs original to be filled in.
Look up fold difference in affinity vs original: ING-1 Fab, heavy chain K31L (Fab, V domains shown, Fab in periplasmic extract) VH: QIQLVQSGPELKKPGETVKISCKASGYTFTLYGMNWVKQAPGKGLKWMGWINTYTEEPTYGDDFKGRFAFSLETSASTANLQINNLKSEDTATYFCARFGSAVDYWGQGTSVTVSS VL: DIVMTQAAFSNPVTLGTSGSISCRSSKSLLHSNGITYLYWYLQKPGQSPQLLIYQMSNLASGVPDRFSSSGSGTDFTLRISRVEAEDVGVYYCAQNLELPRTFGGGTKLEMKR 0.6

Sourced from patent US20110118131A1
